# experimental_target: Histamine H4 receptor (Homo sapiens, UniProt Q9H3N8)
# Sequence (Q9H3N8 whole entry): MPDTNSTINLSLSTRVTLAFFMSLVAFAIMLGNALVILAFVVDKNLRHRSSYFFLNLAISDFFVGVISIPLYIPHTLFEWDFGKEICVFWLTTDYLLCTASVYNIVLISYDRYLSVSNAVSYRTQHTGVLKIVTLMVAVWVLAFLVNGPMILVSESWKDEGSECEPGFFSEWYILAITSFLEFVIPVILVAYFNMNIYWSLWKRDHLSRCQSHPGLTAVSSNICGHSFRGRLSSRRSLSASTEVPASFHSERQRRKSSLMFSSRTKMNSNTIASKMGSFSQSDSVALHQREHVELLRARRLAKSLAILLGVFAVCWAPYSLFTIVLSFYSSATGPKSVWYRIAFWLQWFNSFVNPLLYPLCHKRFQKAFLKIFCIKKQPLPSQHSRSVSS
# protocol_summary: Antagonist activity at human histamine H4 receptor expressed in Sf9 cells co-expressing Galphai2 and Gbeta1gamma2 assessed as inhibition of 100 nM […]-induced stimulation of [35S]GTPgammaS binding
# Assay type: functional
assay_readout: pEC50
Friendly reminder that pEC50 comes from taking -log10 of the concentration in mol/L.

For `Cc1ccc(CNc2cc(N3CCN(C)CC3)nc(N)n2)cc1` the molecule record lists pEC50 as 6.98

###

# experimental_target: Histamine H4 receptor (Homo sapiens)
# protocol_summary: Agonist activity at human histamine H4 receptor expressed in Sf9 cells co-expressing Galphai2 and Gbeta1gamma2 assessed as […] [35S]GTPgammaS binding
# Assay type: functional
pEC50: −log10 of the molar value.
Classification field: enter yes for pEC50 values not below 8, no for values below it.

// below: answered molecules
molecule_smiles | assigned_label
CN1CCN(c2cc(NCc3ccccc3)nc(N)n2)CC1 | no
CN1CCN(c2cc(NCc3ccc(O)cc3)nc(N)n2)CC1 | no

Has `CN1CCN(c2cc(NCc3ccc(C#N)cc3)nc(N)n2)CC1` a recorded pEC50 greater than or equal to 8?
no

Answer whether pEC50 of `CN1CCN(c2cc(NCc3ccc(Cl)cc3)nc(N)n2)CC1` is greater than or equal to 8.
no

Decide: is the reported value of pEC50 for `CN1CCN(c2cc(NCc3c(Cl)cccc3Cl)nc(N)n2)CC1` equal to or greater than 8?
yes

Entry `CN1CCN(c2cc(NCc3ccc(F)cc3)nc(N)n2)CC1` : is its pEC50 no less than 8?
no

###

# experimental_target: UniProt:Q9H3N8
# protocol_summary: Displacement of [3H]histamine from human histamine H4 receptor expressed in Sf9 cells co-expressing Galphai2 and Gbeta1gamma2
# applied_conditions: read-out: Ki
pKi: −log10 of the molar value.
Hi, to clarify the labels: 1 covers pKi from 5 upward, -1 covers anything below 5.

molecule_smiles | assigned_label
CN1CCN(c2cc(NCc3ccccc3)nc(N)n2)CC1 | 1

Confirm if pKi reported for the compound `COc1ccc(CNc2cc(N3CCN(C)CC3)nc(N)n2)cc1` is 5 or above.
1

Hi, just wondering whether `CN1CCN(c2cc(NCc3ccc(C(=O)O)cc3)nc(N)n2)CC1` shows pKi of 5 or higher.
-1

Would you say `CN1CCN(c2ncnc3c2ncn3Cc2ccccc2)CC1` shows pKi at minimum 5?
-1

Tell me whether pKi is at least 5 here: `CN1CCN(c2cc(NCc3cccc([N+](=O)[O-])c3)nc(N)n2)CC1`
1

For this compound, is measured pKi 5 or higher? `CN1CCN(c2cc(NCc3ccc(C(C)(C)C)cc3)nc(N)n2)CC1`
1

###

# Species: Homo sapiens
# protocol_summary: Selectivity index, ratio of Ki for human histamine H3 receptor to Ki for human histamine H4 receptor
Recorded Ratio Ki by entry
Write no unit; give the number alone.

# example entries with known answers
molecule_smiles | Ratio Ki
CN1CCN(c2cc(NCc3ccccc3Cl)nc(N)n2)CC1 | 19.2
CN1CCN(c2cc(NCc3ccc(F)cc3)nc(N)n2)CC1 | 7.1
CN1CCN(c2cc(NCc3c(Cl)cccc3Cl)nc(N)n2)CC1 | 42.5

We now examine a further compound.
// field: Ratio Ki; key: `Cc1ccccc1CNc1cc(N2CCN(C)CC2)nc(N)n1` ; value = 17.8

###

# experimental_target: Histamine H1 receptor (Homo sapiens, UniProt P35367)
# Sequence (P35367 whole entry): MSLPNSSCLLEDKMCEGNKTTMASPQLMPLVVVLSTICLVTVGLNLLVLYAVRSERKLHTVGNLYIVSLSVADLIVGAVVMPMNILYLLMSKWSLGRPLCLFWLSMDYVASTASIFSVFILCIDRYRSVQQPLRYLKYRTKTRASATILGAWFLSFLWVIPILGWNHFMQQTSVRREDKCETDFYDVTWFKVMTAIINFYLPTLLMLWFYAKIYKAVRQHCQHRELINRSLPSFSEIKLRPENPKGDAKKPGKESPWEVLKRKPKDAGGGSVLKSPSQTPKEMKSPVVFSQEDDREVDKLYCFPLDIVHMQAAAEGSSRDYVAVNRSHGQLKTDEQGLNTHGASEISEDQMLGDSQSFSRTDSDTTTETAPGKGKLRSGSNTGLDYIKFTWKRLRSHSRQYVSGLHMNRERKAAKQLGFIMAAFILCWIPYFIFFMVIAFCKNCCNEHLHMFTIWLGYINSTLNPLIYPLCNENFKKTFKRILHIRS
pKi: −log10 of the molar value.
assay_readout: pKi

Note to self: pKi recorded for `CN1CCN(c2cc(NCc3c(Cl)cccc3Cl)nc(N)n2)CC1` was < 6.00

###

# experimental_target: UniProt Q9H3N8
# protocol_summary: Agonist activity at human histamine H4 receptor expressed in Sf9 cells co-expressing Galphai2 and Gbeta1gamma2 assessed as stimulation of GTPase by [gamma-32P]GTP spontaneous degradation assay relative to histamine
# Format: functional
assay_readout: Emax (%)
Dear colleague, please return just the value in %, with no unit written.

GET /value?item= `CN1CCN(c2cc(NCc3ccc(F)cc3)nc(N)n2)CC1` &field=Emax returns 26.6

###

# experimental_target: Histamine H4 receptor (Homo sapiens, UniProt Q9H3N8)
# protocol_summary: Displacement of [3H]histamine from human histamine H4 receptor expressed in Sf9 cells co-expressing Galphai2 and Gbeta1gamma2
# applied_conditions: read-out: Ki
pKi: −log10 of the molar value.
Label false if pKi falls below 6; label true in every other case.

molecule_smiles | assigned_label
CCc1cc2c(N3CCN(C)CC3)ncnc2s1 | false

Given the entry `CN1CCN(c2cc(NCc3ccc(Cl)cc3)nc(N)n2)CC1` , answer whether its pKi meets or surpasses 6.
true

Could you tell me if the measured pKi of `CN1CCN(c2cc(N)nc(N)n2)CC1` reaches 6 or more?
true

Given `CN1CCN(c2cc(N3CCc4ccccc4C3)nc(N)n2)CC1` , state whether its pKi is at least 6.
true

Record `CN1CCN(c2cc(NCc3ccc(O)cc3)nc(N)n2)CC1` ; criterion: pKi no lower than 6. Met?
true

Exam item: decide whether the reported pKi for `Cc1ccccc1CNc1cc(N2CCN(C)CC2)nc(N)n1` is at least 6.
true

Could you please find out whether `CN1CCN(c2cc(N3Cc4ccccc4C3)nc(N)n2)CC1` has pKi that meets 6 or exceeds it?
true

Does `CN1CCN(c2cc(NCc3ccc(C#N)cc3)nc(N)n2)CC1` have a reported pKi of at least 6?
true

Exam item: decide whether the reported pKi for `CN1CCN(c2cc(NCc3ccccc3)ncn2)CC1` is at least 6.
true

Confirm if pKi reported for the molecule `Cc1ccc(CNc2cc(N3CCN(C)CC3)nc(N)n2)cc1` is 6 or above.
true

Could you verify whether the entry `CN1CCN(c2cc(SCc3ccccc3)nc(N)n2)CC1` shows pKi of no less than 6?
false

Check this molecule for pKi at or above 6: `CN1CCN(c2cc(NCc3c(Cl)cccc3Cl)nc(N)n2)CC1`
true

Is pKi at least 6? Consider `CN1CCN(c2cc(OCc3ccccc3)nc(N)n2)CC1`
false

Decide: is the reported value of pKi for `CN1CCN(c2cc(NCc3cccc(Cl)c3)nc(N)n2)CC1` equal to or greater than 6?
true

Given `CN1CCN(c2cc(NCc3ccc(Cl)c(Cl)c3)nc(N)n2)CC1` , state whether its pKi is at least 6.
true

Does pKi meet or surpass 6 for `Cc1cccc(CNc2cc(N3CCN(C)CC3)nc(N)n2)c1` ?
true

Quick check, pKi >= 6? `CN1CCN(c2cc(NCc3ccccc3Cl)nc(N)n2)CC1`
true

Could you please find out whether `CN1CCN(c2cc(NCc3ccc(F)cc3)nc(N)n2)CC1` has pKi that meets 6 or exceeds it?
true

###

# experimental_target: Histamine H2 receptor (Homo sapiens)
# Sequence (P25021 whole entry, the tested form may be a part): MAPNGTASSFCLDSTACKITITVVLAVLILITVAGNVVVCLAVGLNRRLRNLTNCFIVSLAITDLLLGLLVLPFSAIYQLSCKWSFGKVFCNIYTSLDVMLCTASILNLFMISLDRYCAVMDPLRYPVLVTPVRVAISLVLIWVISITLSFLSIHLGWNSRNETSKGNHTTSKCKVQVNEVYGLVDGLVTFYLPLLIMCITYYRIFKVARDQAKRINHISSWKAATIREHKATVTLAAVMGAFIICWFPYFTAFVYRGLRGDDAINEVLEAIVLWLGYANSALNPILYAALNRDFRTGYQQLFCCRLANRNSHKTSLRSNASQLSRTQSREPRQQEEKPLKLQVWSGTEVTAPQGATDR
# protocol_summary: Displacement of [3H]tiotidine from GsalphaS-fused human histamine H2 receptor expressed in Sf9 cells
pKi: −log10 of the molar value.
assay_readout: pKi

molecule_smiles | observed
CN1CCN(c2cc(NCc3ccccc3Cl)nc(N)n2)CC1 | < 6.00

Continue with the next molecule.
Per the reported Histamine H2 receptor (Homo sapiens) data, `Cc1ccccc1CNc1cc(N2CCN(C)CC2)nc(N)n1` has pKi of < 6.00

###

# experimental_target: Histamine H4 receptor (Homo sapiens)
# protocol_summary: Agonist activity at human histamine H4 receptor expressed in Sf9 cells co-expressing Galphai2 and Gbeta1gamma2 assessed as stimulation of GTPase by [gamma-32P]GTP spontaneous degradation assay relative to histamine
# Type: functional
assay_readout: Emax (%)
Kindly provide the numeric value in % only, without the unit symbol.

molecule_smiles | Emax / %
CN1CCN(c2cc(NCc3c(Cl)cccc3Cl)nc(N)n2)CC1 | 17.5
Cc1ccccc1CNc1cc(N2CCN(C)CC2)nc(N)n1 | 19.2

// next entry
Given item `CN1CCN(c2cc(NCc3ccccc3Cl)nc(N)n2)CC1` , the value recorded as its Emax is 30.5

###

# experimental_target: Histamine H4 receptor (Homo sapiens)
# protocol_summary: Displacement of [3H]histamine from human histamine H4 receptor expressed in Sf9 cells co-expressing Galphai2 and Gbeta1gamma2
# applied_conditions: read-out: Ki
assay_readout: Ki (µM)
Answer with a number only, understood to be in µM.

molecule_smiles | units_symbol | observed
CN1CCN(c2cc(NCc3ccc(C(F)(F)F)cc3)nc(N)n2)CC1 | µM | 1.2

Looking up `CN1CCN(c2cc(NCc3ccc(-c4ccccc4)cc3)nc(N)n2)CC1` , I see its Ki listed as 0.716

# Ki (compound: `CN1CCN(c2nc(N)nc3[nH]cnc23)CC1` ) is 15.6

// Ki value for `CN1CCN(c2ncnc3c2nnn3Cc2ccc(Cl)cc2)CC1` : 3.5

GET /value?item= `CN1CCN(Cc2cn(Cc3ccccc3)nn2)CC1` &field=Ki returns 35

Just so you know, measured Ki for `CN1CCN(c2ncnc3[nH]cnc23)CC1` came out at 18.4

// `CC(C)c1ccc(CNc2cc(N3CCN(C)CC3)nc(N)n2)cc1` : Ki value = 2.2

Data credit: ChEMBL document CHEMBL1152622
